Test system: HL-60(TB) leukemia
Assay: NCI-60 one-dose screen, 48 h
Details: 10 µM unless noted
Compounds without any hit were thinned out: in the full panel of roughly 83,000, 20% have a hit. Activity calls are given as the source filed them. The calls were made as follows: active = growth percent below 10; inactive = the rest.
Possible outcomes: true (1) (active), false (0) (inactive)

{"compound": "COc1ccc(OC)c(/C=C2\\Oc3cc(O)ccc3C2=O)c1", "qualitative.label": "false (0)"}
{"compound": "C/C=C/C1=CN2C(=O)c3cc(OC4OC(C)C(NC)C(C)(O)C4O)c(C)c(O)c3N=C[C@@H]2C1 (stereo partly specified)", "qualitative.label": "true (1)"}
{"compound": "COc1ccc(Oc2c(I)cc(CC(NC(C)=O)C(=O)O)cc2I)cc1 (stereo unspecified)", "qualitative.label": "false (0)"}
{"compound": "CCCCCCCCCCCCCCCCCCNC(=O)[C@H]1CSC(c2ccc(OC)c(F)c2)N1 (stereo partly specified)", "qualitative.label": "true (1)"}
{"compound": "O=C1CN(CO)C(=O)CN1CO", "qualitative.label": "false (0)"}
{"compound": "Cc1ccc(-c2nc(C#N)c(S(=O)(=O)NCCO)o2)cc1", "qualitative.label": "true (1)"}

* * *

Test system: HL-60(TB) leukemia
Experiment: NCI-60 one-dose screen, 48 h (100 = growth as untreated, 0 = no growth, -100 = all killed)
Details: 10 µM unless noted
This is part of a sample that, as a whole, favours compounds with a hit. Of some 83,000 tested, about 20% had one in any assay.

{"molecule": "O=C(NCCCNC(=O)OCc1ccc2cccc(O)c2n1)OCc1ccc2cccc(O)c2n1", "measurement.target": "HL-60(TB) leukemia", "measure.unit": "%", "growth": 45.5}
{"molecule": "CCCCN(CCCC)C(=O)[C@H](CC)[C@@H]1CC[C@@H](C)[C@@H]([C@H](C)[C@@H](O)[C@@H](C)C(=O)[C@H](CC)C2O[C@]3(C=C[C@@H](O)[C@]4(CC[C@@](C)([C@H]5CC[C@](O)(CC)[C@H](C)O5)O4)O3)[C@H](C)C[C@@H]2C)O1 (some centres undefined)", "measurement.target": "HL-60(TB) leukemia", "measure.unit": "%", "growth": -40.8}
{"molecule": "NC(Cc1ccc(O)cc1)C(=O)N/N=C/c1ccc(N(CCCl)CCCl)cc1 (centres undefined)", "measurement.target": "HL-60(TB) leukemia", "measure.unit": "%", "growth": 8.82}
{"molecule": "COc1ccc(-c2nc(-c3nc4ccc(C)cc4[nH]3)c3ccccn23)cc1", "measurement.target": "HL-60(TB) leukemia", "measure.unit": "%", "growth": 30.5}
{"molecule": "Nc1nc(Cn2c(-c3nonc3N)nc3ccccc32)nc(N2CCCCC2)n1", "measurement.target": "HL-60(TB) leukemia", "measure.unit": "%", "growth": 82.2}
{"molecule": "NC(=O)NN=C(C1CC1)C1CC1", "measurement.target": "HL-60(TB) leukemia", "measure.unit": "%", "growth": 62.2}
{"molecule": "CC(/C=N/N=C(N)N)=N\\N=C(N)N", "measurement.target": "HL-60(TB) leukemia", "measure.unit": "%", "growth": 77.6}
{"molecule": "COc1ccc(Cc2cnc(N)nc2N)cc1OC", "measurement.target": "HL-60(TB) leukemia", "measure.unit": "%", "growth": 95.2}
{"molecule": "COc1cccc(/C=C\\C(=O)c2ccccc2)c1", "measurement.target": "HL-60(TB) leukemia", "measure.unit": "%", "growth": 43.9}
